Where do these numbers come from? They come from paper PMC2911657.

Target chain: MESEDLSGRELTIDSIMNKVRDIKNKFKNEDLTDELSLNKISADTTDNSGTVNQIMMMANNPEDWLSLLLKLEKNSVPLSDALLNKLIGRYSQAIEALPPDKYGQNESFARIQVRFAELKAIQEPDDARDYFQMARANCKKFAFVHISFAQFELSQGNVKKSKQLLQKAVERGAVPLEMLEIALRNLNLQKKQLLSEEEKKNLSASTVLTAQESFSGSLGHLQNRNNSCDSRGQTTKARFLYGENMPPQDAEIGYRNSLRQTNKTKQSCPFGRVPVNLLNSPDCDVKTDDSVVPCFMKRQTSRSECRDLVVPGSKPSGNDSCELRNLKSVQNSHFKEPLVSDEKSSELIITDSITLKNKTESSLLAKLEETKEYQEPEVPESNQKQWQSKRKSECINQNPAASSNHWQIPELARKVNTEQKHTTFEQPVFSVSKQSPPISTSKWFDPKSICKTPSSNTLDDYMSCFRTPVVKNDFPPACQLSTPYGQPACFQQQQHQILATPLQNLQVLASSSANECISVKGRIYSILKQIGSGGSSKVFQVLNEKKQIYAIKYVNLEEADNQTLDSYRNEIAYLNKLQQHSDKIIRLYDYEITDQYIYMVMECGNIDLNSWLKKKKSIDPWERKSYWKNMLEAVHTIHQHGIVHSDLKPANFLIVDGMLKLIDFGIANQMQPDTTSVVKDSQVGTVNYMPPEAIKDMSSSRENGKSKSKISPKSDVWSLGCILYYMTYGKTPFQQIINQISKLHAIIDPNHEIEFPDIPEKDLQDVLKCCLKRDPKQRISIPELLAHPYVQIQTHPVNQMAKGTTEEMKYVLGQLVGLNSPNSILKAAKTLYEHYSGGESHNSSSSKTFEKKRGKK
readout.kind: IC50

Reported IC50 for Oc1c2ccccc2c2c3c(cccc13)N=N2 [SP600125] was ~2.5 µM
